System: Hep 3B2
Assay: Cytotoxicity against human Hep3B cells assessed as cell viability at 9 to 150 uM after 48 hrs by MTT assay relative to control
Format: functional

{"compound": "O=[N+]([O-])c1ccc(NC2CCCCC2)c([N+](=O)[O-])c1", "Activity": ">80%"}
{"compound": "COc1cccc(Nc2ccc([N+](=O)[O-])cc2[N+](=O)[O-])c1", "Activity": ">80%"}
{"compound": "O=C(CC(F)(F)F)Nc1cc(N2CCOCC2)c([N+](=O)[O-])cc1[N+](=O)[O-]", "Activity": "51 - 80%"}
{"compound": "Nc1ccccc1Nc1ccc([N+](=O)[O-])cc1[N+](=O)[O-]", "Activity": ">80%"}
{"compound": "CCC(=O)Oc1cc(N2CCOCC2)c([N+](=O)[O-])cc1[N+](=O)[O-]", "Activity": ">80%"}
{"compound": "NC(=O)c1cc(N2CC2)c([N+](=O)[O-])cc1[N+](=O)[O-]", "Activity": ">80%"}
{"compound": "CC(C)CC(=O)Oc1cc(N2CCOCC2)c([N+](=O)[O-])cc1[N+](=O)[O-]", "Activity": ">80%"}
{"compound": "CN(C)C(=O)Oc1cc(N2CCOCC2)c([N+](=O)[O-])cc1[N+](=O)[O-]", "Activity": ">80%"}
{"compound": "O=[N+]([O-])c1ccc(Nc2ccc3ccccc3c2)c([N+](=O)[O-])c1", "Activity": "51 - 80%"}
{"compound": "O=[N+]([O-])c1cc([N+](=O)[O-])c(Nc2ccc(Cl)cc2)cc1Nc1ccc(Cl)cc1", "Activity": "51 - 80%"}
{"compound": "CC(C)Nc1ccc([N+](=O)[O-])cc1[N+](=O)[O-]", "Activity": "51 - 80%"}
{"compound": "O=[N+]([O-])c1ccc(N2CCCC(O)C2)c([N+](=O)[O-])c1 (stereo not drawn)", "Activity": ">80%"}
{"compound": "O=[N+]([O-])c1ccc(N2CCOCC2)c([N+](=O)[O-])c1", "Activity": "51 - 80%"}
{"compound": "COCCC(=O)Oc1cc(N2CCOCC2)c([N+](=O)[O-])cc1[N+](=O)[O-]", "Activity": ">80%"}
{"compound": "CC(C)CC(=O)Nc1cc(N2CCOCC2)c([N+](=O)[O-])cc1[N+](=O)[O-]", "Activity": "51 - 80%"}
{"compound": "CCNc1ccc([N+](=O)[O-])cc1[N+](=O)[O-]", "Activity": "51 - 80%"}
{"compound": "O=[N+]([O-])c1ccc(N2CCC[C@H]2CO)c([N+](=O)[O-])c1", "Activity": ">80%"}
{"compound": "CCC(=O)Nc1cc(N2CCOCC2)c([N+](=O)[O-])cc1[N+](=O)[O-]", "Activity": "51 - 80%"}

====

Test system: Hep 3B2
Test: Cytotoxicity against human Hep3B cells assessed as cell viability at 9 to 150 uM after 24 hrs by MTT assay relative to control
Format: functional
measurement.label: Activity

{"smiles.code": "O=[N+]([O-])c1ccc(Nc2cc(F)cc(F)c2)c([N+](=O)[O-])c1", "measurement.label": "Activity", "reported.result": ">80%"}
{"smiles.code": "CCC(=O)Oc1cc(N2CCOCC2)c([N+](=O)[O-])cc1[N+](=O)[O-]", "measurement.label": "Activity", "reported.result": ">80%"}
{"smiles.code": "NC(=O)c1cc(N2CC2)c([N+](=O)[O-])cc1[N+](=O)[O-]", "measurement.label": "Activity", "reported.result": ">80%"}
{"smiles.code": "Nc1ccccc1Nc1ccc([N+](=O)[O-])cc1[N+](=O)[O-]", "measurement.label": "Activity", "reported.result": ">80%"}
{"smiles.code": "O=[N+]([O-])c1ccc(N2CCC[C@H]2CO)c([N+](=O)[O-])c1", "measurement.label": "Activity", "reported.result": ">80%"}
{"smiles.code": "O=[N+]([O-])c1cc([N+](=O)[O-])c(Nc2ccc(S(=O)(=O)O)cc2)cc1Nc1ccc(S(=O)(=O)O)cc1", "measurement.label": "Activity", "reported.result": "51 - 80%"}
{"smiles.code": "CN(C)C(=O)Oc1cc(N2CCOCC2)c([N+](=O)[O-])cc1[N+](=O)[O-]", "measurement.label": "Activity", "reported.result": ">80%"}
{"smiles.code": "O=C(CC(F)(F)F)Nc1cc(N2CCOCC2)c([N+](=O)[O-])cc1[N+](=O)[O-]", "measurement.label": "Activity", "reported.result": "51 - 80%"}
{"smiles.code": "O=[N+]([O-])c1ccc(NC2CCCCC2)c([N+](=O)[O-])c1", "measurement.label": "Activity", "reported.result": ">80%"}
